Source: paper PMC7419010

Molecular target: Lsa-nAChR2 (α3β1β2) (Lepeophtheirus salmonis, UniProt A0A7S5PZ03+A0A7S5PZ05+A0A7S5Q7H3)
Assay: cell-based
Type: cell-based
Details: 1 μM, 1:1 (α:β) ratio
PROPERTY_NAME: agonist screening (pre- and co-application protocol)

N#C/N=C1\SCCN1Cc1ccc(Cl)nc1 | agonists
CN/C(=N\[N+](=O)[O-])NCc1cnc(Cl)s1 | agonists
CN/C(=N/CC1CCOC1)N[N+](=O)[O-] (stereo not shown) | agonists
CCN(Cc1ccc(Cl)nc1)/C(=C/[N+](=O)[O-])NC | agonists

###

Biological target: Lsa-nAChR1 (α1α2β1β2) (Lepeophtheirus salmonis, UniProt A0A7S5PZ05+A0A7S5Q3W4+A0A7S5Q7H3+A0A7S5U9A3)
Sequence (A0A7S5PZ05 entry or part of it): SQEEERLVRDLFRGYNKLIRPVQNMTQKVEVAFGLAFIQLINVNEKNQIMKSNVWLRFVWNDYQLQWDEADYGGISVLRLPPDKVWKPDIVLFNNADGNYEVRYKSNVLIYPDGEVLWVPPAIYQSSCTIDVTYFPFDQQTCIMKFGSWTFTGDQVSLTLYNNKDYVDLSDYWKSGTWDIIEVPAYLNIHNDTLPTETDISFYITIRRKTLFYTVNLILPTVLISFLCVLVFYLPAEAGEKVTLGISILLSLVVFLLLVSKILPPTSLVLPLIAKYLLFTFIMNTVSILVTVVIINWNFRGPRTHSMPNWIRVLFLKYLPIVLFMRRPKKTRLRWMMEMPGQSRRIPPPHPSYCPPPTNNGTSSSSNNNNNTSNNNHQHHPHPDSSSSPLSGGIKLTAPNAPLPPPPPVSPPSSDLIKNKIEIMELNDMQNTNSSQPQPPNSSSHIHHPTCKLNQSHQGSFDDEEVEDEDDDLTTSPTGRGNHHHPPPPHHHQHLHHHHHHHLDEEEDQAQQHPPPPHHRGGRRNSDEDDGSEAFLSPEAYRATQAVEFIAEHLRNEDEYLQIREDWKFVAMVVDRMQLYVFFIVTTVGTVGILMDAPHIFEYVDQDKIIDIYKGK
Sequence (A0A7S5Q3W4 entry or part of it): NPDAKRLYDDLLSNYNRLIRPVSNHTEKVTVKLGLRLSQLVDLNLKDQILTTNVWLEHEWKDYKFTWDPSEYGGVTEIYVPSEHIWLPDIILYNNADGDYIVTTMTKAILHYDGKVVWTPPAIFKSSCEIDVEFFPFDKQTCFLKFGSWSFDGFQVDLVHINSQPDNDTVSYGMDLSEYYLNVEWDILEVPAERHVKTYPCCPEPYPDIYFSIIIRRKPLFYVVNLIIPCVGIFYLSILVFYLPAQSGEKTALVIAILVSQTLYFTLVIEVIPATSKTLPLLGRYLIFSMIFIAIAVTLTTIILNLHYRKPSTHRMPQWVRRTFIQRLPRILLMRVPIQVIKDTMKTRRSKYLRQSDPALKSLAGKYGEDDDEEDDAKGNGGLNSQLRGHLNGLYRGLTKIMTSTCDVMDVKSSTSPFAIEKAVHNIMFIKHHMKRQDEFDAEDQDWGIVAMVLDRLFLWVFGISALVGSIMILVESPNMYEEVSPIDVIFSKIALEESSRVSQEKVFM
Sequence (A0A7S5U9A3 entry or part of it): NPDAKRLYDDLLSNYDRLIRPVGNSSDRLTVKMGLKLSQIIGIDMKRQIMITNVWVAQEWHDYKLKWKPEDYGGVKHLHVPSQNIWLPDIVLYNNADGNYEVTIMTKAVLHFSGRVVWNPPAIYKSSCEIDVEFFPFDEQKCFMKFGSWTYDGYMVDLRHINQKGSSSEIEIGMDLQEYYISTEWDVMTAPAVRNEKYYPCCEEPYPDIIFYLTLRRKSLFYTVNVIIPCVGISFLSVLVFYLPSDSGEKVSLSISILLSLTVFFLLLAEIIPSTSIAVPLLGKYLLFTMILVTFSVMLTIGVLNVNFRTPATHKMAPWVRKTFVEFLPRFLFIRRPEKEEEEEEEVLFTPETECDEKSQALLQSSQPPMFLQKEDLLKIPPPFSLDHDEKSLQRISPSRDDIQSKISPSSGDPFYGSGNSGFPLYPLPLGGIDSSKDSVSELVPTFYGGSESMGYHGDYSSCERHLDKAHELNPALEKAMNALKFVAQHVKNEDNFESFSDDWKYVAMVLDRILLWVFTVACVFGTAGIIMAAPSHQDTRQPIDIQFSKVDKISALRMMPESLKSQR
Sequence (A0A7S5Q7H3 entry or part of it): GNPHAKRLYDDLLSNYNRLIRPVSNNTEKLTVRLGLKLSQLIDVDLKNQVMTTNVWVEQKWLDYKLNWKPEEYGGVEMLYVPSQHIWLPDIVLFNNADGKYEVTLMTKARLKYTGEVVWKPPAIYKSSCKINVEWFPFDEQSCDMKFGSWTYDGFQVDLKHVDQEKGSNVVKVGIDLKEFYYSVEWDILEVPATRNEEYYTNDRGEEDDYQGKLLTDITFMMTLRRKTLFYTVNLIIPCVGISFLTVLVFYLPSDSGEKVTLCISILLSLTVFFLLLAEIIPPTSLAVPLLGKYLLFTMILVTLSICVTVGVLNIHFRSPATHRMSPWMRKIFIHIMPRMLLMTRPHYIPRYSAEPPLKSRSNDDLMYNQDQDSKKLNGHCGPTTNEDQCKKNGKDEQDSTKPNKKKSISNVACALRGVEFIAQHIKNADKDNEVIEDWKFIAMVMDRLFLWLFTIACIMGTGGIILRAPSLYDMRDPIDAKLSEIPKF
Experiment: cell-based
Assay type: cell-based
Conditions: EC50 (nM), Xenopus oocytes, 1:1 (α:β) ratio
The reader will find reported EC50 values listed item by item below.
PROPERTY_NAME: EC50 (nM)

CN/C(=N/CC1CCOC1)N[N+](=O)[O-] (stereo not drawn) | 220
CN1CCC[C@H]1c1cccnc1 | 3950
N#C/N=C1\SCCN1Cc1ccc(Cl)nc1 | 12

###

Target: Lsa-nAChR2 (α3β1β2) (Lepeophtheirus salmonis, UniProt A0A7S5PZ03+A0A7S5PZ05+A0A7S5Q7H3)
Assay: cell-based
Assay type: cell-based
Details: maximal peak current compared to ACh 100 μM; 1:1 (α:β) ratio
Procedure: Capped cRNAs were synthesized (T7 mMessage mMachine kit, Ambion, Austin, TX, USA) from the linearized vectors containing the different subunits according to the manufacturer’s protocol. cRNA samples were stored at -80°C until use. Oocytes were ordered from Ecocyte (Germany). […] Oocytes were impaled with two electrodes filled with 3 M KCl, and their membrane potentials were maintained at -80 mV throughout the experiment. […] EC50 values were determined from the mean of at least 3 or more cells. […]
PROPERTY_NAME: Max peak (% Ach) (%)

CC(=O)OCC[N+](C)(C)C [Acetylcholine] | 100
CCN(Cc1ccc(Cl)nc1)/C(=C/[N+](=O)[O-])NC [Nitenpyram] | 70.1
CN1CCC[C@H]1c1cccnc1 [Nicotine] | 16.1
CN/C(=N\[N+](=O)[O-])NCc1cnc(Cl)s1 [Clothianidin] | 75.4
CN/C(=N/CC1CCOC1)N[N+](=O)[O-] (centres unmarked) [Dinotefuran] | 110.2

###

Biological target: Lsa-nAChR2 (α3β1β2) (Lepeophtheirus salmonis, UniProt A0A7S5PZ03+A0A7S5PZ05+A0A7S5Q7H3)
Experiment: cell-based
Assay type: cell-based
Method: Capped cRNAs were synthesized (T7 mMessage mMachine kit, Ambion, Austin, TX, USA) from the linearized vectors containing the different subunits according to the manufacturer’s protocol. cRNA samples were stored at -80°C until use. Oocytes were ordered from Ecocyte (Germany). […] Oocytes were impaled with two electrodes filled with 3 M KCl, and their membrane potentials were maintained at -80 mV throughout the experiment. […] EC50 values were determined from the mean of at least 3 or more cells. […]
The reader will find reported EC50 values listed item by item below.
PROPERTY_NAME: EC50 (nM)

CCN(Cc1ccc(Cl)nc1)/C(=C/[N+](=O)[O-])NC | 381
CN/C(=N\[N+](=O)[O-])NCc1cnc(Cl)s1 | 81
